biological target: Human IP6K1 (Homo sapiens); construct: GST (N, cleaved yes); made in house; host or cells: C43 E. coli, pGEX-6P-2; test: IP6K1 high-throughput screen of the Sigma LOPAC (ADP-Glo Max, single point); assay type: biochemical; details: LOPAC single-point screen, ADP-Glo Max raw signal per well
Counter-ions that a name gives are not always drawn.
experimental_readout: Raw Signal
Numbers only.

For each of the molecules below, note its Raw Signal.
1. O=C([O-])c1cc2cc(Cc3cccnc3)ccc2o1.[Na+] [Furegrelate sodium]
2. CN(N=O)c1cc(O)ccc1O [Dephostatin]
3. S=C(NC1CCCCC1)N1CCC(c2cnc[nH]2)CC1 [Thioperamide maleate]
4. CC(C)NCC(O)COc1cccc2ccccc12.Cl (racemic) [(±)-Propranolol hydrochloride]

Key:
[53193, 55962, 54981, 53827]

For each of the molecules below, note its Raw Signal.
1. COc1cccc(OC)c1OCCNCC1CSc2ccccc2O1 (stereo not drawn) [Benoxathian hydrochloride]
2. COc1ccccc1N1CCN(CCCNc2cc(=O)n(C)c(=O)n2C)CC1 [Urapidil hydrochloride]
3. COc1ccc2c(c1OC)C(=O)O[C@@H]2[C@H]1c2c(cc3c(c2OC)OCO3)CCN1C.Cl [Noscapine hydrchloride]
4. COc1ccccc1N1CCNCC1.Cl

Key:
57648
54926
53510
57311

For each of the molecules below, note its Raw Signal.
1. O=C(O)CC[N+](=O)[O-] [3-Nitropropionic acid]
2. Cc1cc(N)c2ccccc2[n+]1CCCCCCCCCC[n+]1c(C)cc(N)c2ccccc21 [Dequalinium dichloride]
3. C#CCN1C(C)=C(C(=O)OC)C(c2cccc([N+](=O)[O-])c2)C(C(=O)OCC)=C1C (stereo not drawn) [MRS 1845]

Key:
1: 53138; 2: 55705; 3: 54765

The recorded Raw Signal for entry N[C@H](CO)C(=O)O [D-Serine] equals 53973

---

biological target: Human IP6K1 (Homo sapiens, UniProt Q92551); construct: GST (N, cleaved yes); made in house; host or cells: C43 E. coli, pGEX-6P-2; assay: IP6K1 high-throughput screen of the Sigma LOPAC (ADP-Glo Max, single point); format: biochemical; settings: Sigma LOPAC single-point screen; Z-score from plate average and StDev;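 further: final compound concentration 10µM in 5% DMSO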
Sequence (Q92551 whole entry): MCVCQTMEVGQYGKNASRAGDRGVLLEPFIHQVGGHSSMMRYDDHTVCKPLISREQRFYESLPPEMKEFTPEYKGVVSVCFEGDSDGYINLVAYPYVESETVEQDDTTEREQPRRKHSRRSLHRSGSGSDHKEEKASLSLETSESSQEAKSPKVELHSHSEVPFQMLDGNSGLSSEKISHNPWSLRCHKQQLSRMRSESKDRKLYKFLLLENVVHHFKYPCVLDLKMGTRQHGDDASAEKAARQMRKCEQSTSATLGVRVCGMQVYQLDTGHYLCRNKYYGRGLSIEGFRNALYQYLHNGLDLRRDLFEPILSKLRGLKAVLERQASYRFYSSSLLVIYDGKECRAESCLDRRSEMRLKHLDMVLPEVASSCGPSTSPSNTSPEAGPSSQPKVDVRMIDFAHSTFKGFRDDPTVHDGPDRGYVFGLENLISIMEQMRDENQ
Where a name gives a salt, the structure may show the parent alone.
experimental_readout: Z-score

compound: CCCCN1CCC(COC(=O)c2cc(Cl)c(N)c3c2OCCO3)CC1.Cl [SB 204070 hydrochloride]
assayed_target: Human IP6K1 (Homo sapiens, UniProt Q92551)
experimental_readout: Z-score
test_result: 0.9064

For each of the compounds below, note its Z-score.
1. c1ccc2c(c1)[I+]c1ccccc1-2 [Diphenyleneiodonium chloride]
2. CCN(CC)CCCC(C)Nc1c2ccc(Cl)cc2nc2ccc(OC)cc12 (stereo not shown) [Quinacrine dihydrochloride]
3. NCCCCNCCCN [Spermidine trihydrochloride]

Key:
1: 0.9131; 2: 0.8794; 3: 0.8844

---

Field: Z-score. Provide a value for each of the compounds that follow.
target: Human IP6K1 (Homo sapiens); construct: GST (N, cleaved yes); made in house; host or cells: C43 E. coli, pGEX-6P-2; experiment: IP6K1 high-throughput screen of the Sigma LOPAC (ADP-Glo Max, single point); type: biochemical; details: LOPAC single-point screen; Z-score from raw signal with plate average and StDev
Counter-ions that a name gives are not always drawn.
Answers are plain numbers.

The examples below pair each entry with its known result.
compound: CNCCc1c[nH]c2ccc(O)cc12.O=C(O)C(=O)O
assayed_target: Human IP6K1 (Homo sapiens)
Z-score: -0.1407

compound: Br.Oc1cc2c(c(Cl)c1O)CCNCC2c1ccccc1 (racemic) [(±)-6-Chloro-PB hydrobromide]
assayed_target: Human IP6K1 (Homo sapiens)
Z-score: -0.1595

compound: Cl.NC[C@@H]1O[C@H](C23CC4CC(CC(C4)C2)C3)Cc2c1ccc(O)c2O [A-77636 hydrochloride]
assayed_target: Human IP6K1 (Homo sapiens)
Z-score: -0.2572

compound: CCCC(=O)NCCc1c2n(c3ccc(OC)cc13)Cc1ccccc1-2
assayed_target: Human IP6K1 (Homo sapiens)
Z-score: -0.128

For each of the compounds below, note its Z-score.
1. O=c1c(-c2ccc(O)cc2)coc2cc(O)cc(O)c12
2. Oc1ccc(/C=C/c2cc(O)cc(O)c2)cc1
3. S=C(NC1CCCCC1)N1CCC(c2cnc[nH]2)CC1 [Thioperamide maleate]
4. Cc1nc2ccccn2c(=O)c1CCN1CCC(C(=O)c2ccc(F)cc2)CC1
5. COc1cc(/C=C(\C#N)C(=O)c2ccc(O)c(O)c2)cc(I)c1O
6. O=C(c1ccc(OCCN2CCCCC2)cc1)c1c(-c2ccc(O)cc2)sc2cc(O)ccc12 [Raloxifene hydrochloride]
7. Cl.O[Si](CCCN1CCCCC1)(c1ccc(F)cc1)C1CCCCC1 (stereo not shown)
8. NC(N)=Nc1nc(CSCCC(N)=NS(N)(=O)=O)cs1

Key:
-0.3948
-0.3648
-0.2026
-0.4431
-0.4392
-0.3691
-0.4564
-0.4143

For each of the compounds below, note its Z-score.
1. NS(=O)(=O)c1cc(C(=O)O)c(NCc2ccco2)cc1Cl [Furosemide]
2. COc1ccccc1N1CCN(CCCNc2cc(=O)n(C)c(=O)n2C)CC1 [Urapidil hydrochloride]
3. CSC(=N)N.CSC(=N)N.O=S(=O)(O)O [S-Methylisothiourea hemisulfate]
4. Cl.Clc1ccc(Cn2c(CN3CCCC3)nc3ccccc32)cc1 [Clemizole hydrochloride]

Key:
[-0.3292, -0.2133, -0.4427, -0.2498]
